# procedure_details: Single dose clinical study: plasma Compound A pharmacokinetics
# Format: in vivo, human
# measurement_setup: human, plasma, oral, 25 mg, non-Japanese, 25 mg, without weight as covariate; read-out: Cmax Geometric LS Means Reference
outcome_measure: Cmax
Please answer using a numeric value trailed by its unit.

Supply recorded Cmax for COc1ncc(C)c(-c2ccc3c(c2)[nH]c(=O)c2cnn([C@H]4CCOC4)c23)c1C here.
152 ng/mL

----------
# procedure_details: Multiple ascending dose study: plasma pharmacokinetics
# Type: in vivo
# measurement_setup: human, po, 400 mg, Day 1, 400 mg QD oral, Japanese, read-out: AUC(0-24 h) Median
outcome_measure: AUC(0-t) (ng·h/mL)
# unit: ng·h/mL | format: bare number

Look up AUC(0-t) of COc1ncc(C)c(-c2ccc3c(c2)[nH]c(=O)c2cnn([C@H]4CCOC4)c23)c1C [Compound A] and report it.
18900

----------
# procedure_details: Multiple ascending dose study: plasma pharmacokinetics
# Format: in vivo
# measurement_setup: human, po, 25 mg, Day 14, 25 mg QD oral, read-out: Cmax GM (% CV)
# Protocol: Four sequential cohorts of healthy participants (≥50 years and ≤85 years old) were treated with multiple ascending doses of Compound A up to the maximum tolerated dose (MTD). A total of 6 participants per cohort were randomized to Compound A. Proposed doses of Compound A were: Participants received Compound A capsules, orally once daily (QD) on Days 1 to 14 after an overnight fast of at least 10 hours. Compound A was administered orally with 240 milliliter (mL) (8 fluid ounces) of water. […]
outcome_measure: Cmax
Record the result as a number with its unit.

Supply recorded Cmax for COc1ncc(C)c(-c2ccc3c(c2)[nH]c(=O)c2cnn([C@H]4CCOC4)c23)c1C [Compound A] here.
332 ng/mL

----------
# procedure_details: Single dose clinical study: plasma Compound A pharmacokinetics
# Type: in vivo, human
# measurement_setup: human, plasma, po, 25 mg, plasma, Non-Japanese Subjects (Parts A,B), single oral 25 mg; read-out: t1/2 Mean (SD) (converted)
outcome_measure: half-life (h)
# output: bare number, implied unit h

// Input: COc1ncc(C)c(-c2ccc3c(c2)[nH]c(=O)c2cnn([C@H]4CCOC4)c23)c1C . Output its half-life only.
26.8

----------
# procedure_details: Single dose clinical study Part B: CSF Compound A pharmacokinetics
# Assay type: in vivo
# measurement_setup: human; CSF, healthy adults Part B, single oral 200 mg, fasted; read-out: CSF tmax Median
outcome_measure: Tmax (h)
Number only, in h; omit the unit.

Identify measured Tmax associated with COc1ncc(C)c(-c2ccc3c(c2)[nH]c(=O)c2cnn([C@H]4CCOC4)c23)c1C
4.37

----------
# procedure_details: Multiple ascending dose study: plasma pharmacokinetics
# Format: in vivo
# measurement_setup: human, po, 50 mg, Day 14, 50 mg QD oral, read-out: tmax Median
outcome_measure: Tmax (h)
Give your result in h as a bare value.

Specify measured Tmax for COc1ncc(C)c(-c2ccc3c(c2)[nH]c(=O)c2cnn([C@H]4CCOC4)c23)c1C [Compound A] .
1.5

----------
# procedure_details: Multiple ascending dose study: plasma pharmacokinetics
# Assay type: in vivo
# measurement_setup: human, po, 100 mg, Day 14, 100 mg QD oral, read-out: AUC(0-inf) Median
# Experimental: Four sequential cohorts of healthy participants (≥50 years and ≤85 years old) were treated with multiple ascending doses of Compound A up to the maximum tolerated dose (MTD). A total of 6 participants per cohort were randomized to Compound A. Proposed doses of Compound A were: Participants received Compound A capsules, orally once daily (QD) on Days 1 to 14 after an overnight fast of at least 10 hours. Compound A was administered orally with 240 milliliter (mL) (8 fluid ounces) of water. […]
outcome_measure: AUC(0-inf) (ng·h/mL)
The reply should contain only the number, in ng·h/mL.

Name the recorded AUC(0-inf) of the item COc1ncc(C)c(-c2ccc3c(c2)[nH]c(=O)c2cnn([C@H]4CCOC4)c23)c1C in your answer.
62700
